Tested on: HCC1569;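 also: TDF is a line of transformed human dermal fibroblasts of mesenchymal origin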
Test: H1.0 immunofluorescence intensity relative to DMSO (% of DMSO); higher = stronger H1.0 induction, active = 140 or more
Conditions: concentration: 10 µM; 24 h
Listed next: entries and their corresponding H1.0 immunofluorescence intensity.

{"compound": "COC(=O)C1C(O)CCC2CN3CCc4c([nH]c5ccccc45)C3CC21.Cl (stereo not drawn)", "H1.0 immunofluorescence intensity": 100}
{"compound": "Cc1onc(-c2ccccc2)c1C(=O)NC1C(=O)N2C1SC(C)(C)C2C(=O)[O-] (stereo not drawn) [Oxacillin]", "H1.0 immunofluorescence intensity": 111}
{"compound": "CCN(CC)Cc1ccc(C(=O)N(CCc2ccccc2OC)[C@@H]2CCNC2)cc1.Cl.Cl", "H1.0 immunofluorescence intensity": 115}
{"compound": "COc1c2ccoc2cc2oc(=O)ccc12 [Bergapten]", "H1.0 immunofluorescence intensity": 99.9}
{"compound": "CC(C)N(CCC(=O)c1ccc2ccccc2c1)Cc1ccccc1.Cl", "H1.0 immunofluorescence intensity": 119}
{"compound": "O=C(O)CCCC=CCC1C(O)CC(O)C1C=CC(O)COc1cccc(Cl)c1.[Na] (stereo not drawn)", "H1.0 immunofluorescence intensity": 92.6}
{"compound": "O=C(O)c1ccccc1Nc1cccc(C(F)(F)F)c1 [Flufenamic acid]", "H1.0 immunofluorescence intensity": 106}
{"compound": "CNC(=C[N+](=O)[O-])NCCSCc1ccc(CN(C)C)o1.Cl [Ranitidine hydrochloride]", "H1.0 immunofluorescence intensity": 85.1}
{"compound": "CCCCCCCCCCCCCCCCCCCCC(=O)O [Heneicosanoic acid]", "H1.0 immunofluorescence intensity": 103}
{"compound": "COC(=O)CNC(=O)C(=O)OC [methyl 2-(2-methoxy-2-oxoethylamino)-2-oxoacetate]", "H1.0 immunofluorescence intensity": 101}
{"compound": "CCCCCC(O)C=CC=CCC=CCCCCCCC(=O)O (stereo not drawn)", "H1.0 immunofluorescence intensity": 94.6}
{"compound": "CC1CC2C3CCC4=CC(=O)C=CC4(C)C3(F)C(O)CC2(C)C1(O)C(=O)CO (stereo not drawn) [Betamethasone]", "H1.0 immunofluorescence intensity": 99.5}
{"compound": "COc1ccc(CCN(C)CCCC(C#N)(c2ccc(OC)c(OC)c2)C(C)C)cc1OC.Cl (racemic)", "H1.0 immunofluorescence intensity": 95.5}
{"compound": "CCCCCCCCCCCCCCCCCCOCC(COP(=O)([O-])OCC[N+](C)(C)C)OC(C)=O (stereo not drawn)", "H1.0 immunofluorescence intensity": 103}
{"compound": "CCCCN1CCC(n2c(=O)[nH]c3ccccc32)CC1.O=C(O)C(=O)O [NS 521 oxalate]", "H1.0 immunofluorescence intensity": 98.3}
{"compound": "CC(C)=CCCC(C)=CCCC(C)=CCCC(C)=CCCC(C)=CCCC(C)=CCCC(C)=CCCC(C)=CCCC(C)=CCO [Solanesol]", "H1.0 immunofluorescence intensity": 93.9}
{"compound": "CC(C)c1cc(C(C)C)c(CC(=O)NS(=O)(=O)Oc2c(C(C)C)cccc2C(C)C)c(C(C)C)c1", "H1.0 immunofluorescence intensity": 110}
{"compound": "C[C@@H](O)[C@H]1C(=O)N2C(C(=O)O)=C(SCCN=CN)C[C@H]12.O", "H1.0 immunofluorescence intensity": 93.3}
